Source of measurements: the RNAGym collection of RNA variant scans (doi:10.1126/science.aae0568)

B1: tRNA (parent)
chain: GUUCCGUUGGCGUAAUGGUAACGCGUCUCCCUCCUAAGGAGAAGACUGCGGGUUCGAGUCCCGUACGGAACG

Variants of: B1
Assay: yeast fitness relative to wild type (ratio to wild type); higher = fitter; tRNA-Arg(CCU), competitive growth, 37 C, YPD
This sample holds only a part of the variants without activity.
Please mark Satisfied if the recorded yeast fitness is equal to or greater than 0.6, and Not satisfied if it falls below.

GUUCCGUUGGCGUAAUGGUAACGCGUCUCCCUCCUAAGGAGAAGACUGCGGGUUGGCGUCACGUAUGGAACG [C55G A57C C61A C66U] : Not satisfied
GUUCCGUUGGCGUAUUGGUACCGCGUCUCCCUCCUAAGCAGAAGACUGCGGGUACGAGUCCCGUACGGAACG [A15U A21C G39C U54A] : Not satisfied
GUUCCGUUGGCGUAAUGGUAACGCGUUUCCCUCCCAAGGAGAAGACUGCGGGUUCGAGUCCCGUACGGAACG [C27U U35C] : Satisfied
GUUCCGUUGGCGUAAUGGUAACGCCUCUCCCUCCUGAGGAGAAGACUACGGGUUCGAGUCCCGUACGGAACG [G25C A36G G48A] : Not satisfied
GUUCCGUUGGCGUAAUGGCAACGCGUAUCGCUCCUAAGGAGAAGCCUGCGGGUUCGAGUCCCGUACGGAACG [U19C C27A C30G A45C] : Not satisfied
GUGCCGUUGGCGUAAUGGUAACGCGUCUCCCUCCUAAAGAGAAGACUGCGGGUUCGAGUACCGUACGGAACG [U3G G38A C60A] : Not satisfied
GUUCCGUCGGCGUAAUGGUAACGCGUCUCCCUCCUAAGGGGACGACUGCGGGUUCGAGUCCCGUACGGAACG [U8C A40G A43C] : Satisfied
GUUCCGUUGGCGUAAUGAUAACGCGUCUCCCUCCUACGGAGAAGACUGCGGGUUUGGGUCCCGUACGGAACG [G18A A37C C55U A57G] : Not satisfied
GUUCCGUUGGCGUAAUGGUAACGCGUCUCCCUCGUAAGGACAAGACUGUGGGUUCGAGUCCAGUACGGCACG [C34G G41C C49U C62A A69C] : Not satisfied
GUUCGGUUGGCGUUAUGAUAUCGCGUCUCCCUCCUAAGGAGGAGACUGCGGGUUCGAGUCCUGUCCGGAACG [C5G A14U G18A A21U A42G C62U A65C] : Not satisfied
GUUGCGUUGGCGUAAUGGUAACGCGUCUCCCUCCUAAGGAGACGACUGCGGGUUCGAGUCCAGUACGGAACG [C4G A43C C62A] : Not satisfied
GUUCCGUUGGCGUAAUGGUAACGCGUCUCCCUUCUAAGGUGAAGACUGCGGGUUCCAGUCCCGUACGGAACG [C33U A40U G56C] : Not satisfied
GUUCCGUUGGCGUAAUGGUAACGCGUCUCCCUUCUAAGGAGAAGACUGCGGGUUCGAGUCACGUACGGAACG [C33U C61A] : Not satisfied
GUUCAGUUGGCGUACUGGUAACGCGUCUUCCUCCUAAGGAGAAGAUUGCGGGAUCGAGUCCCGUACGGAACG [C5A A15C C29U C46U U53A] : Not satisfied
GUUCCGUUGGCAUAAUGGUAAAGCGUCUCCCUCCUGGGGAGAAGACUGCGGGUUCGAGUCCCGUACGGAACG [G12A C22A A36G A37G] : Not satisfied
GUUCCGUUGGCGUAAUGGUAACGCGUCUCCCUCCUAUGGCGAAGACUGCGAGUUCGAGUCCCGUACGGAACG [A37U A40C G51A] : Satisfied
GUUCCGUUGGCGUAAUGGUAAGGCGUCUCCGUCCUAAGGAGAAGACUGUGGGUGCGAGUCCCGUACGGAACG [C22G C31G C49U U54G] : Not satisfied
GUUCCGUCGGCGUAAUGGUAACGCGUCUCCCUCCCAAGGAGAAGACUGCGGGUUCGAGUCCCGUACGGAACG [U8C U35C] : Satisfied
GUUCCGUUGGCGUAAUGGUAACGCGUCUCCUUCCUAAGGAGAAGACUGCGGGUUUGAGUCCCGUACGGAUCG [C31U C55U A70U] : Not satisfied
GUUUCGUUGGCGUAAUGGUAGCGCGUCUCCCUCCUAAGGAGAAGAAUGCGGGUCCGAGUCCCGUACGGAACG [C4U A21G C46A U54C] : Satisfied
